- Test Method Notes: Volume of distribution at steady state in BALB/c mouse at 3 mg/kg, iv by LC-MS/MS analysis
- Assay type: ADME, organism-based
- Test Settings: in vivo, read-out: Vdss
Result Type: Vd (L/kg)

>>> print(df.to_string())
                               smiles_entry  result_type  unit_label  endpoint_value
0  CC(=O)c1c(C)c2cnc(Nc3ccc(N4CCNCC4)cc3)nc2n2cc(C(C)(C)C)nc12           Vd        L/kg            33.7
1  CC(=O)c1c(C)c2cnc(Nc3ccc(N4CCNCC4)cc3)nc2n2cc(C(C)C)nc12           Vd        L/kg            46.5

###

- Assay Target: CYP1A2 (Homo sapiens)
- Sequence (P05177 whole entry): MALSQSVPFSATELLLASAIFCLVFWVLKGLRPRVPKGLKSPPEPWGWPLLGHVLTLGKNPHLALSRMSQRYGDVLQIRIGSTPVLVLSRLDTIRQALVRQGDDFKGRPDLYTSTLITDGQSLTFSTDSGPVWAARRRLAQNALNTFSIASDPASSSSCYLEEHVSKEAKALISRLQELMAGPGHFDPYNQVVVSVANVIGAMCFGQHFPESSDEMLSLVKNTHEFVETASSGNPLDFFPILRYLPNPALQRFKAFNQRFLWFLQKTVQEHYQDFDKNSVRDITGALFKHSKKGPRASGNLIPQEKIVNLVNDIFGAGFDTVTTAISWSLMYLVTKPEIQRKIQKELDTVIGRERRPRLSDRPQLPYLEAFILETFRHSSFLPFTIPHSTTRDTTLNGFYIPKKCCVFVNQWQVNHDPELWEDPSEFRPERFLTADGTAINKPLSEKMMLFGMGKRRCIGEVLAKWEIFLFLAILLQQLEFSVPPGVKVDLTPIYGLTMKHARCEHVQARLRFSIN
- Test Method Notes: Inhibition of CYP1A2 in human liver microsomes at 10 uM measured after 20 mins in presence of NADPH by LC-MS/MS analysis relative to control
- Format: ADME
Result Type: inhibition at […], 10 µM (%)

In [3]: df
Out[3]:
                               smiles_entry               result_type  endpoint_value
0  CC(=O)c1c(C)c2cnc(Nc3ccc(N4CCNCC4)cc3)nc2n2cc(C(C)C)nc12  inhibition at […], 10 µM              17
1  CC(=O)c1c(C)c2cnc(Nc3ccc(N4CCNCC4)cc3)nc2n2cc(C(C)(C)C)nc12  inhibition at […], 10 µM              17

###

- Test Method Notes: Oral bioavailability in BALB/c mouse at 10 mg/kg by LC-MS/MS analysis
- Type: ADME, organism-based
- Test Settings: in vivo
Result Type: bioavailability (%)

P. CC(=O)c1c(C)c2cnc(Nc3ccc(N4CCNCC4)cc3)nc2n2cc(C(C)(C)C)nc12
Q. CC(=O)c1c(C)c2cnc(Nc3ccc(N4CCNCC4)cc3)nc2n2cc(C(C)C)nc12
Choose between P and Q : whose measured bioavailability value is numerically larger? Output the label that corresponds to your choice.
P

###

- Assay Target: CDK6/Cyclin D3 (Homo sapiens)
- Sequence (Q00534 whole entry, looked up, the tested form may be a part): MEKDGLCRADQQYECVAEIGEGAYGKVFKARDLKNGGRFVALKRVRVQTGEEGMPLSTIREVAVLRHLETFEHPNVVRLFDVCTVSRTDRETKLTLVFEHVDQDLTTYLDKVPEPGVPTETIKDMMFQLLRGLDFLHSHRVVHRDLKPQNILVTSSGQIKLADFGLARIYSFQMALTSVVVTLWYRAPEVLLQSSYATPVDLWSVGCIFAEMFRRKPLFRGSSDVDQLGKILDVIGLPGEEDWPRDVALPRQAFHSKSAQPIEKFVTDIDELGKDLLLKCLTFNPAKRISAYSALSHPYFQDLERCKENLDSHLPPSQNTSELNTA
- Test Method Notes: Inhibition of human full-length N-terminal GST tagged CDK6 (1 to 326 residues)/GST-tagged cyclinD3 (1 to 292 residues) expressed in baculovirus expression system using ULight-elF4E-binding protein 1 peptide as substrate measured after 30 mins by LANCE assay
pIC50: −log10 of the molar value.
Result Type: pIC50

Previously resolved entries follow.
>>> df
                               smiles_entry                   assay_target  result_type  endpoint_value
0  CC(=O)c1c(C)c2cnc(Nc3ccc(CN4CCNCC4)cn3)nc2n2cc(C(C)C)nc12  CDK6/Cyclin D3 (Homo sapiens)        pIC50            8.60
1         Cc1cn2c(n1)c(C#N)c(C)c1cnc(N)nc12  CDK6/Cyclin D3 (Homo sapiens)        pIC50            5.51
2  Cc1cn2c(n1)c(C#N)c(C)c1cnc(Nc3ccc(N4CCOCC4)cc3)nc12  CDK6/Cyclin D3 (Homo sapiens)        pIC50            6.96

P. CC(=O)c1c(C)c2cnc(Nc3ccc(N4CCNCC4)cc3)nc2n2cc(C(=O)N3CCCC3)nc12
Q. CC(=O)c1c(C)c2cnc(Nc3ccc(N4CCNCC4)cc3)nc2n2cc(C)nc12
Could you check which of P and Q has a smaller value for pIC50? Output the label that corresponds to your choice.
P
(P: 6.82, Q: 7.99)

###

- Assay Target: CYP3A4 (Homo sapiens, UniProt P08684)
- Sequence (P08684 whole entry): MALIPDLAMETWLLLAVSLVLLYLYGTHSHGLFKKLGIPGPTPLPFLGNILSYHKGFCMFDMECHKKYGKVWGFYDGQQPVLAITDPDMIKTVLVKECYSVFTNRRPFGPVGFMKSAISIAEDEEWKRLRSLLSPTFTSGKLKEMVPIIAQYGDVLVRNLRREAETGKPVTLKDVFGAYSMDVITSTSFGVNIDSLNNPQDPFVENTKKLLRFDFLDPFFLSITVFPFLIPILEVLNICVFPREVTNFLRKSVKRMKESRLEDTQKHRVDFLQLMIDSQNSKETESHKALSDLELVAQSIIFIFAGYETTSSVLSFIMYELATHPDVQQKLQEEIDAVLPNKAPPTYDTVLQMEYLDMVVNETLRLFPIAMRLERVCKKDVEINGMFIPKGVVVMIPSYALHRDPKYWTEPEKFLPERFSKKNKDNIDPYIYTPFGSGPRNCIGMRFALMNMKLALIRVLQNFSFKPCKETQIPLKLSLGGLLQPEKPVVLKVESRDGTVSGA
- Test Method Notes: Inhibition of CYP3A4 in human liver microsomes at 10 uM measured after 20 mins in presence of NADPH by LC-MS/MS analysis relative to control
- Assay type: ADME
Result Type: inhibition at […], 10 µM (%)

P. CC(=O)c1c(C)c2cnc(Nc3ccc(N4CCNCC4)cc3)nc2n2cc(C(C)(C)C)nc12
Q. CC(=O)c1c(C)c2cnc(Nc3ccc(N4CCNCC4)cc3)nc2n2cc(C(C)C)nc12
Choose between P and Q : whose measured inhibition at […], 10 µM value is numerically larger? Output the label that corresponds to your choice.
P

###

pIC50: −log10 of the molar value.
# pIC50 measurements, system: Cyclin-dependent kinase 1/cyclin B1 (Homo sapiens)
# Sequence (P06493 whole entry): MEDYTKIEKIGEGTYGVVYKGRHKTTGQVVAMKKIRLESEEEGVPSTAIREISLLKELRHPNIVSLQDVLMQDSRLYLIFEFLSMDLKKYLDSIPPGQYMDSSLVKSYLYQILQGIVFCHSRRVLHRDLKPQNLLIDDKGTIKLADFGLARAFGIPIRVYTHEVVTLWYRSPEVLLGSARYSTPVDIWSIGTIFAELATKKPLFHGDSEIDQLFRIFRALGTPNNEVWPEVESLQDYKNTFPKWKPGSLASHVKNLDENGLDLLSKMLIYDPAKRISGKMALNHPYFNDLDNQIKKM
# Sequence (P14635 whole entry, further chain): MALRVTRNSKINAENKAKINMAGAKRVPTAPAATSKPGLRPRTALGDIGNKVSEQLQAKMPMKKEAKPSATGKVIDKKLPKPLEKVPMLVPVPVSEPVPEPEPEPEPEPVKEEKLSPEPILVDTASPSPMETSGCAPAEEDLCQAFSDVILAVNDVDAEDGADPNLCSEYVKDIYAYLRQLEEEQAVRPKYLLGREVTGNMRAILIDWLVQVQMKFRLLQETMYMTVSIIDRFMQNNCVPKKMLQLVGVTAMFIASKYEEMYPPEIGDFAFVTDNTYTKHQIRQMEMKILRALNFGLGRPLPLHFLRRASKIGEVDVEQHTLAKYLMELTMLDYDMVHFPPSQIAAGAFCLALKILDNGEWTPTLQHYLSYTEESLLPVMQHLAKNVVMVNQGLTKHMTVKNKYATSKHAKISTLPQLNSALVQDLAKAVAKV
Result Type: pIC50

P. CC(=O)c1c(C)c2cnc(Nc3ccc(N4CCNCC4)cc3)nc2n2cc(C(C)C)nc12
Q. CC(=O)c1c(C)c2cnc(Nc3ccc(N4CCNCC4)cc3)nc2n2cc(C(C)(C)C)nc12
Choose between P and Q : whose measured pIC50 value is numerically larger? Output the label that corresponds to your choice.
P
(P: 6.51, Q: 5.68)

###

- Assay Target: Cyclin-dependent kinase 7/ cyclin H (Homo sapiens)
- Sequence (P51946 whole entry): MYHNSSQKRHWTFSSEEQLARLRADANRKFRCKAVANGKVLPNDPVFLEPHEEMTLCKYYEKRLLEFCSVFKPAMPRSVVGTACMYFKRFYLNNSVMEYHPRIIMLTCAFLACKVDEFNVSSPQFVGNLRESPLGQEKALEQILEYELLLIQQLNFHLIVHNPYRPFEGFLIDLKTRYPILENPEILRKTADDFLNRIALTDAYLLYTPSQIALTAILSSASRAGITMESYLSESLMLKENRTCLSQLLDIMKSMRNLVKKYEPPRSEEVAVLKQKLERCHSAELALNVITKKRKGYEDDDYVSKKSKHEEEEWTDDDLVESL
- Sequence (P50613 whole entry): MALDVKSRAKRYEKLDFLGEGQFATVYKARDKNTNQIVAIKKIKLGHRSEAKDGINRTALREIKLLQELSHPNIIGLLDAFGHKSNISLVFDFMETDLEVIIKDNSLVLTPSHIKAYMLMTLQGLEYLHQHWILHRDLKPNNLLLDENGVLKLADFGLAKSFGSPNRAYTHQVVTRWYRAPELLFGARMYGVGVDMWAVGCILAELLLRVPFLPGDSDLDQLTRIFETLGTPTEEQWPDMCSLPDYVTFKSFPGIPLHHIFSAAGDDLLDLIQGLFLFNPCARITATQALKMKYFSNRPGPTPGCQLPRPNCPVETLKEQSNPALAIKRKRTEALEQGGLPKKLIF
- Test Method Notes: Inhibition of CDK7/cyclin H (unknown origin)
Result Type: IC50 (nM)

P. CC(=O)c1c(C)c2cnc(Nc3ccc(N4CCNCC4)cc3)nc2n2cc(C(C)C)nc12
Q. CC(=O)c1c(C)c2cnc(Nc3ccc(N4CCNCC4)cc3)nc2n2cc(C(C)(C)C)nc12
Choose between P and Q : whose measured IC50 value is numerically larger? Output the label that corresponds to your choice.
Q
(Q: 204 nM, P: 94.7 nM)

###

- Assay Target: CYP2D6 (Homo sapiens)
- Sequence (P10635 whole entry): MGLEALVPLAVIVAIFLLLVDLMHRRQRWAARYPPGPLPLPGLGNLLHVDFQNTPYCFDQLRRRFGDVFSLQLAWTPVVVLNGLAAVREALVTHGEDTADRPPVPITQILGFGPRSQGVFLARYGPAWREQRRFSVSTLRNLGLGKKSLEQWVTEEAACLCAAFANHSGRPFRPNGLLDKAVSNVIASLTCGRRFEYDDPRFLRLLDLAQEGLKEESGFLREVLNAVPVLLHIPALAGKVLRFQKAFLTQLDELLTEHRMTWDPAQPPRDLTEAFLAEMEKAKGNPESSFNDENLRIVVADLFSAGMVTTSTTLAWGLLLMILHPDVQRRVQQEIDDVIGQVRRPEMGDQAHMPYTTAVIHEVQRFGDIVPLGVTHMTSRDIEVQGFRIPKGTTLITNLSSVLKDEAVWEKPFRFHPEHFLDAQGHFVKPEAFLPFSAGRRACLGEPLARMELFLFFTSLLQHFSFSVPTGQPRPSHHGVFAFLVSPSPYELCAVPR
- Test Method Notes: Inhibition of CYP2D6 in human liver microsomes at 10 uM measured after 20 mins in presence of NADPH by LC-MS/MS analysis relative to control
- Assay type: ADME
Result Type: inhibition at […], 10 µM (%)

A. CC(=O)c1c(C)c2cnc(Nc3ccc(N4CCNCC4)cc3)nc2n2cc(C(C)C)nc12
B. CC(=O)c1c(C)c2cnc(Nc3ccc(N4CCNCC4)cc3)nc2n2cc(C(C)(C)C)nc12
Choose between A and B : whose measured inhibition at […], 10 µM value is numerically larger? Output the label that corresponds to your choice.
A

###

- Assay Target: CYP2C9 (Homo sapiens, UniProt P11712)
- Sequence (P11712 whole entry): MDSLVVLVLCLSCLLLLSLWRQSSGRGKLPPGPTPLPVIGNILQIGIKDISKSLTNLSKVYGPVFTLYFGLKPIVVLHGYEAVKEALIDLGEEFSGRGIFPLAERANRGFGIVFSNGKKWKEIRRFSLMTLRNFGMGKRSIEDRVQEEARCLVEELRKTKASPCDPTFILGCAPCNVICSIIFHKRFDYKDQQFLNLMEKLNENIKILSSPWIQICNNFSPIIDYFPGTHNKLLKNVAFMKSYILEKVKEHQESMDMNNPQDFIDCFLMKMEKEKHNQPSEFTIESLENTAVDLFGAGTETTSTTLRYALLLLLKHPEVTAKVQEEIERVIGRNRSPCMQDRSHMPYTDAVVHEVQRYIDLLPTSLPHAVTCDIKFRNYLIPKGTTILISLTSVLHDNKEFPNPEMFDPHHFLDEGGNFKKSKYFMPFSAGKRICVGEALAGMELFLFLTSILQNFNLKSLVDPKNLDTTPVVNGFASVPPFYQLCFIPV
- Test Method Notes: Inhibition of CYP2C9 in human liver microsomes at 10 uM measured after 20 mins in presence of NADPH by LC-MS/MS analysis relative to control
- Assay type: ADME
Result Type: inhibition at […], 10 µM (%)

>>> print(df.to_string())
                               smiles_entry                           assay_target               result_type  endpoint_value
0  CC(=O)c1c(C)c2cnc(Nc3ccc(N4CCNCC4)cc3)nc2n2cc(C(C)(C)C)nc12  CYP2C9 (Homo sapiens, UniProt P11712)  inhibition at […], 10 µM              12
1  CC(=O)c1c(C)c2cnc(Nc3ccc(N4CCNCC4)cc3)nc2n2cc(C(C)C)nc12  CYP2C9 (Homo sapiens, UniProt P11712)  inhibition at […], 10 µM              11

###

- Test Method Notes: Volume of distribution at steady state in Sprague-Dawley rat at 3 mg/kg, iv by LC-MS/MS analysis
- Type: ADME, organism-based
- Test Settings: in vivo, read-out: Vdss
Result Type: Vd (L/kg)

>>> df
                               smiles_entry  result_type  endpoint_value
0  CC(=O)c1c(C)c2cnc(Nc3ccc(N4CCNCC4)cc3)nc2n2cc(C(C)C)nc12           Vd            35.2
1  CC(=O)c1c(C)c2cnc(Nc3ccc(N4CCNCC4)cc3)nc2n2cc(C(C)(C)C)nc12           Vd            35.7

###

- Test Method Notes: Half life in BALB/c mouse at 3 mg/kg, iv by LC-MS/MS analysis
- Format: ADME, organism-based
- Test Settings: in vivo
Result Type: half-life (h)

>>> print(df.to_string())
                               smiles_entry  endpoint_value
0  CC(=O)c1c(C)c2cnc(Nc3ccc(N4CCNCC4)cc3)nc2n2cc(C(C)C)nc12            6.17
1  CC(=O)c1c(C)c2cnc(Nc3ccc(N4CCNCC4)cc3)nc2n2cc(C(C)(C)C)nc12            4.64

###

- Assay Target: CDK9/cyclin T1 (Homo sapiens, UniProt P50750)
- Sequence (O60563 whole entry): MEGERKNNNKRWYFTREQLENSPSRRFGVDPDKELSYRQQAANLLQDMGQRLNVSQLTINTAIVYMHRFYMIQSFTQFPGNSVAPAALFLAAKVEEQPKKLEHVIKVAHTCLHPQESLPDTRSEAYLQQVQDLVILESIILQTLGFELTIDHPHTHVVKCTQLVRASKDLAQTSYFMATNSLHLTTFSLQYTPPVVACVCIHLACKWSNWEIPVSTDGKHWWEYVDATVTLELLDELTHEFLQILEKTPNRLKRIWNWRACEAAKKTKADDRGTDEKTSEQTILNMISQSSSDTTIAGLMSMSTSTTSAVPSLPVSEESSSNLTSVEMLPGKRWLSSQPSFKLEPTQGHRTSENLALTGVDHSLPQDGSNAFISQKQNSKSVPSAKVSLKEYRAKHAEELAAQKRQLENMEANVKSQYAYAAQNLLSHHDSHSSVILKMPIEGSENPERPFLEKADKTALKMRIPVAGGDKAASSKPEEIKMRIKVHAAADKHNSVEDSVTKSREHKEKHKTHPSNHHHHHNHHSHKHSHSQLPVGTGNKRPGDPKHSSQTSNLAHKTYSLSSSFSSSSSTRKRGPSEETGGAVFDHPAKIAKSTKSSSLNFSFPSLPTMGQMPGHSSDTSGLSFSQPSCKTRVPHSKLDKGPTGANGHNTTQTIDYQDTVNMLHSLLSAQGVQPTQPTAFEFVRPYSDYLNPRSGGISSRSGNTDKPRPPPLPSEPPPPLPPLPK
- Sequence (P50750 whole entry): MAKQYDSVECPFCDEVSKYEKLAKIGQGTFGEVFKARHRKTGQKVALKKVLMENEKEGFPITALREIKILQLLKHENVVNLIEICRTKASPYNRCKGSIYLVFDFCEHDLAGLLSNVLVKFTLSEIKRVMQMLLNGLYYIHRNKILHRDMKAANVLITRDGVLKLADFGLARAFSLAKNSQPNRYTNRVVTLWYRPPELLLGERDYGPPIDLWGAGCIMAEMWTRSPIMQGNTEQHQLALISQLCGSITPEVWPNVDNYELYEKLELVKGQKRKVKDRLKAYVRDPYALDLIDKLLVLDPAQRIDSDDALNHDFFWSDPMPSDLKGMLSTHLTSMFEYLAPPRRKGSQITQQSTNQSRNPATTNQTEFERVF
pIC50: −log10 of the molar value.
Result Type: pIC50

a. CC(=O)c1c(C)c2cnc(Nc3ccc(N4CCNCC4)cc3)nc2n2cc(C(C)(C)C)nc12
b. CC(=O)c1c(C)c2cnc(Nc3ccc(N4CCNCC4)cc3)nc2n2cc(C(C)C)nc12
Could you check which of a and b has a smaller value for pIC50? Output the label that corresponds to your choice.
a
(a: 6.66, b: 7.63)
